System: CCRIS mutagenicity, Ames/micronucleus/aberration tests
Run Description: CCRIS mutagenicity studies
Measurement Parameters: Test System: AMES SALMONELLA TYPHIMURIUM; Strain/Indicator: TA1537; Metabolic Activation: RAT, LIVER, S-9, PCB; Method: STANDARD PLATE
Calls of active or inactive are those of the source. The rule behind the calls is not given here.
Parameter: mutagenic call

See these solved cases before continuing.
| Molecule | Experimental Result |
| --- | --- |
| O=C1c2cc(O)cc(O)c2C(=O)c2c(O)cc(CO)cc21 | active; positive |
| Cc1cc2c(c(O)c1O)C(=O)c1c(O)cc(O)cc1C2=O | active; positive |
| Cc1cc(O)c2c(c1)C(=O)c1cc(O)cc(O)c1C2=O | active; positive |
| O=C(O)c1ccccc1Nc1cccc(C(F)(F)F)c1 | inactive; negative |

Below: the item to evaluate.
## Input Answer with the recorded mutagenic call for the molecule listed here: CC(C(=O)O)c1ccc2c(c1)[nH]c1ccc(Cl)cc12 (stereo not given)
## Output inactive; negative

The measurements presented in this section are drawn from PubChem BioAssay AID1259407.
